- study.system: human MC3R (Homo sapiens)
- Construct: expressed in transfected cells; host or cells: HEK-293 cells stably expressing the GScAMP22F split-luciferase cAMP sensor (parent reporter line from Promega); MC3R clone generated in-house, G418 selection
- Sequence (P41968 whole entry): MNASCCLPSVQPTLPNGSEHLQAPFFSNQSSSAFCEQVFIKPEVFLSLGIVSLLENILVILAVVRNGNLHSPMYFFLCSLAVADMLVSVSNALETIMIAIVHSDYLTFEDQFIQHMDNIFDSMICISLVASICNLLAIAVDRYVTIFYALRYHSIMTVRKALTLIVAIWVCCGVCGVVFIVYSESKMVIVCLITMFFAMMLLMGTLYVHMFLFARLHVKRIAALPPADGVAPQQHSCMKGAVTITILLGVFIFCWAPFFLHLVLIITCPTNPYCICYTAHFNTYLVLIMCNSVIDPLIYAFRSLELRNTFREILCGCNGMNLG
- assay.text: split-luciferase cAMP sensor assay, agonist mode (measurement window 1), hMC3R
- Assay type: cell-based
- experimental.context: agonist mode, hMC3R stable cell line; read-out: MC3R cAMP % max activation
Positions of bridges follow the written chain, without caps; N, C: chain ends. Non-standard residues stand in square brackets, D forms with d. Residues, ends and D or L forms follow the SMILES beside them. dPhe(4-NH2) = Nc1ccc(C[C@@H](N)C(=O)O)cc1; dPhe(4-Br) = N[C@H](Cc1ccc(Br)cc1)C(=O)O
Let's look at some compounds and their measured Emax.
Write it as a number; the unit % goes unstated.

I am curious: what Emax value has been reported for CC(=O)N[C@@H](CCCNC(=N)N)C(=O)N[C@H]1CSSC[C@@H](C(=O)N[C@@H](CCCCN)C(N)=O)NC(=O)[C@@H](Cc2c[nH]c3ccccc23)NC(=O)[C@H](CCCNC(=N)N)NC(=O)[C@@H](Cc2ccc(Br)cc2)NC(=O)[C@H](CCCNC(=N)N)NC(=O)[C@@H](C)NC1=O [CTX-1218] (Ac-RC[dA]R[dPhe(4-Br)]R[dW]CK-NH2; disulfide 2-8) ?
16

I am curious: what Emax value has been reported for CC(=O)N[C@@H](CCCNC(=N)N)C(=O)N[C@H]1CSSC[C@@H](C(N)=O)NC(=O)[C@@H](Cc2c[nH]c3ccccc23)NC(=O)[C@H](CCCNC(=N)N)NC(=O)[C@@H](Cc2ccc(O)cc2)NC(=O)[C@H](CCCNC(=N)N)NC(=O)[C@@H](C)NC1=O [CTX-1237] (Ac-RC[dA]R[dY]R[dW]C-NH2; disulfide 2-8 (inferred)) ?
19

Here is another compound to look at.
I am curious: what Emax value has been reported for CC(=O)Nc1ccc(C[C@H]2NC(=O)[C@H](CCCNC(=N)N)NC(=O)[C@@H](C)NC(=O)[C@@H](NC(=O)[C@H](CCCNC(=N)N)NC(C)=O)CSSC[C@@H](C(N)=O)NC(=O)[C@@H](Cc3c[nH]c4ccccc34)NC(=O)[C@H](CCCNC(=N)N)NC2=O)cc1 [CTX-1245] (Ac-RC[dA]R[dPhe(4-NH2)](Ac)R[dW]C-NH2; disulfide 2-8) ?
6.3

Source listed as patent US20240391954A1.
